Biological target: Solute carrier family 2, facilitated glucose transporter member 1 (Homo sapiens) (UniProt P11166)
Sequence (P11166 whole entry): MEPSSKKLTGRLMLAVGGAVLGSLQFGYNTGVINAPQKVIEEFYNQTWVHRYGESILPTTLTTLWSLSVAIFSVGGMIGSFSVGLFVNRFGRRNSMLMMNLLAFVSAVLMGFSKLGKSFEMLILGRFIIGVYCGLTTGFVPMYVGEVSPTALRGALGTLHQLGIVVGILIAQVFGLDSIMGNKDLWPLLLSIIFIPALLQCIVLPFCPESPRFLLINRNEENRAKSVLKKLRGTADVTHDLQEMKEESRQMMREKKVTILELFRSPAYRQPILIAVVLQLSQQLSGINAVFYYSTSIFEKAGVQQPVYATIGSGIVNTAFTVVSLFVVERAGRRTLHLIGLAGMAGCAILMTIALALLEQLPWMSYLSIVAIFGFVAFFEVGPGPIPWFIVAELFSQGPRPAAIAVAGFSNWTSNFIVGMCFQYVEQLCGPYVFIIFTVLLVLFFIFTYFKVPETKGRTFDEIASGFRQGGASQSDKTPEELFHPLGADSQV
Assay: ST_JUDE_LEISH: Cytotoxicity at 2uM final concentration against transgenic Leishmania Mexicana promastigotes LmGLUT1 that are glucose transport deficient and complemented with the human glucose transporter GLUT1. Activity is measured by DNA content using SYBR green in vitro
Format: functional
Below, each of the compounds is paired with its reported inhibition value.

| Compound | inhibition [%] |
| --- | --- |
| CCCCc1ccc(C(=O)Nc2ccc3nc(N4CCN(CC)CC4)cc(C)c3c2)cc1 | -2.18 |
| Cc1nc(N)nc(N)c1OCCCCOc1ccccc1 | 3.87 |
| Cn1cc(C2CCN(CCCCNC(=O)c3ccc(-c4ccc(C(F)(F)F)cc4)c(CO)c3)CC2)c2ccccc21 | 4.11 |
| Cc1cc(N2CCCN(C)CC2)nc(Nc2ccc(Br)cc2)n1 | 5.39 |
| CN(C)CCCOc1ccc(CCCCc2ccc(Cl)cc2C(=O)c2ccccc2)cc1 | 13.3 |
| O=C(/C=C/c1ccc(Cl)c(Cl)c1)NCCCCCN1CCCN(C(=O)Nc2cccc(F)c2)CC1 | 0.1 |
| CO/N=C(\C)c1ccc2c(c1)CCN(CCC1CCC(NC(=O)/C=C/c3ccc(F)cc3)CC1)CC2 (configuration not stated) | 6.29 |
| COc1cc2ccccc2c(CNCCCCCCNCc2c(OC)c(OC)cc3ccccc23)c1OC | 4.39 |
| Cc1cc(OCCCN2CCC(NS(=O)(=O)c3cccc(Br)c3)C2)c2ccccc2n1 (configuration not stated) | 0.6 |
| O=C(NCCNc1ccnc2cc(Cl)ccc12)c1ccccc1F | -1.91 |
| N=C(N)NN=CC(=O)Nc1ccc(C(F)(F)F)cc1 | -0.81 |
| COc1cc2nc(N3CCC(CNC(=O)c4cccc5cc[nH]c45)CC3)nc(N)c2cc1OC | 6.26 |
| CN(C)CC(O)C(c1ccccc1)c1ccc(Cl)cc1 (configuration not stated) | 5.17 |
| O=C(/C=C/c1ccc(Cl)c(Cl)c1)NCCCCCN1CCC(NC(=O)Nc2ccc(C(F)(F)F)cc2)CC1 | 8.19 |
| N#Cc1ccc(S(=O)(=O)N2C(c3cccc([N+](=O)[O-])c3)C(C(=O)c3ccccc3)N(C3CCCCC3)C2c2cccc([N+](=O)[O-])c2)cc1 (configuration not stated) | 7.88 |
| CCCCCCCN1CC[C@@H](CCCc2ccnc3ccc(OCC4CCCNC4)cc23)[C@@H](CC)C1 (some centres not stated) | 4.6 |
| CCCc1cc(Cc2cnc(N)nc2N)ccc1OCCCCCC(=O)OCC | 1.31 |
| CNC(=O)c1ccccc1Nc1nc(Nc2ccc(N3CCOCC3)cc2)ncc1Cl | 77.2 |
| O=C(Nc1ccc(Cn2nc(Cl)c(N3CCCNCC3)cc2=O)cc1)c1ccc(-c2ccccc2)cc1 | 7.36 |
| COc1ccc2nccc(N3CCC(SCCNCc4ccc5c(n4)NC(=O)CO5)C3)c2n1 (configuration not stated) | 0.4 |
| CCCCCCNC(=O)C1Cc2c([nH]c3ccc(F)cc23)C2(CCN(Cc3ccccc3)CC2)N1 (configuration not stated) | 12.7 |
| Clc1cc(Cl)c2cc(CNCCCNc3ccc4ccccc4n3)[nH]c2c1 | 0.53 |
| O=C(Nc1ccc(C(F)(F)F)cc1)c1cc(Br)cnc1NCCCn1ccnc1 | -0.53 |
| CC1(C)NC(N)=NC(=N)N1OCCCOc1c(Cl)cc(Cl)cc1Cl | -1.14 |
| Cc1cc(NC(=O)Nc2ccc(C(C)(C)C)cc2)c2ccccc2n1 | 1.18 |
| CC(C)NCc1ccc(-c2ccc(NC(=O)c3cccc(Cl)c3)cc2)cc1 | -2.83 |
| Cc1cc(Nc2nc(NCc3cccnc3)nc3ccccc23)n[nH]1 | 8.58 |
| CN(C)c1ccc(CN2CCC(NC(=O)c3ccc(-c4ccccc4Cl)s3)CC2)cc1 | 2.51 |
| c1ccc2c(Nc3ccc(Cc4ccc(Nc5c6ccccc6nc6ccccc56)cc4)cc3)c3ccccc3nc2c1 | 6.04 |
| COc1ccc(CC2(CO)CCN(Cc3ccc(O)c(Cl)c3)CC2)cc1 | 9.35 |
| CC(C)=C(C(=O)OCc1ccccc1)N1C(=O)[C@@H](NC(c2ccccc2)(c2ccccc2)c2ccccc2)[C@H]1[S+]([O-])CC(=O)OC(C)(C)C (some centres not stated) | 0.68 |
| C=C(C)Cn1cc(C2CCN(CCCCNC(=O)c3sc(-c4ccc(Cl)cc4Cl)nc3CO)CC2)c2ccccc21 | -1.31 |
